- Tested on: rat chronic carcinogenicity bioassay, TD50
- method: DSSTox (CPDBAS) Carcinogenic Potency Database Summary Rat Bioassay Results
- particulars: TD50_Rat_Note: TD50 is harmonic mean of more than one positive test; harmonic mean of TD50 includes a value for upper 99% confidence li; TargetSites_Rat_Female: mammary gland; stronger effect = lower value
- Description: The Carcinogenic Potency Database (CPDB) is a unique and widely used international resource of the results of over 6500 chronic, long-term animal cancer tests on over 1500 chemical substances. The CPDB provides easy access to the bioassay literature, with qualitative and quantitative analyses of both positive and negative experiments that have been published over the past 50 years in the general literature and by the National Cancer Institute/National Toxicology Program. […]
endpoint.label: Potency

{"columns": ["smiles.text", "tested.on", "Potency"],
 "data": [
  ["Cc1ccc2cc3c(ccc4ccccc43)c3c2c1CC3", "rat chronic carcinogenicity bioassay, TD50", "0.491 mg/kg/day"]
]}

Attention now turns to another entry.
Prompt: Tell me Potency reported for `NC(=O)N/N=C/c1ccc([N+](=O)[O-])o1`
Completion: 6.98 mg/kg/day
